assay metric: melting point

| molecule | melting point |
| --- | --- |
| Cc1cc(Br)cnc1CCCNc1ncc(Cc2cccnc2)cc1O | 141 to 143 °C |
| CCOC(=O)c1ncn2c1CNC(=O)c1ccccc1-2 | 248 to 250 °C |
| CN(C)c1c(SC(F)(F)F)c(C#N)nn1-c1c(Cl)cc(C(F)(F)F)cc1Cl | 110 to 111 °C |
| CCCCOC(=O)[C@H]1CN(c2ccc3c(c2)sc(=O)n3C)C(=O)O1 | 85 to 87 °C |
| CCCC1Oc2cc(OC)c(Cl)c(Cl)c2C1=O (configuration not stated) | 90 to 92 °C |

Could I get melting point for every one of these entries?
1. COC(=O)c1ccc(-c2c(CC(=O)Nc3ccc(F)cc3C(F)(F)F)c(=O)oc3cc(Cl)c(C)cc23)cc1
2. O=C(CN1CCOCC1)N1CCN(c2ccc(O)cc2)CC1
3. COc1ccc(C2=C(CC(C)N(CCO)C(C)C)C(=O)NCCC2)cc1 (configuration not stated)
4. COc1cc(CCCO)ccc1OCc1coc(/C=C/c2ccccc2)n1
5. CC(C)N1C(=O)c2ccccc2C1CC(C)(C)O (configuration not stated)

1. 202 to 204 °C
2. 197 °C
3. 109 to 111 °C
4. 95 to 96 °C
5. 82 to 84 °C
